target: Neutrophil Lipoxygenase (Cavia porcellus); construct: peritoneal neutrophils derived from guinea pigs; endogenous in cells; host or cells: guinea pig peritoneal neutrophils; test: Inhibition of neutrophil lipoxygenase (release and biosynthesis of LTB4 and 5-HETE) in guinea pig neutrophils; type: cell-based; conditions: LTB4; 10 μg/ml compound; 100 μM arachidonic acid and 20 μM calcium ionophore (A23187); the lower the percentage, the more active; read-out: LTB4, % of Control
Sequence (A0A286X958 1-674): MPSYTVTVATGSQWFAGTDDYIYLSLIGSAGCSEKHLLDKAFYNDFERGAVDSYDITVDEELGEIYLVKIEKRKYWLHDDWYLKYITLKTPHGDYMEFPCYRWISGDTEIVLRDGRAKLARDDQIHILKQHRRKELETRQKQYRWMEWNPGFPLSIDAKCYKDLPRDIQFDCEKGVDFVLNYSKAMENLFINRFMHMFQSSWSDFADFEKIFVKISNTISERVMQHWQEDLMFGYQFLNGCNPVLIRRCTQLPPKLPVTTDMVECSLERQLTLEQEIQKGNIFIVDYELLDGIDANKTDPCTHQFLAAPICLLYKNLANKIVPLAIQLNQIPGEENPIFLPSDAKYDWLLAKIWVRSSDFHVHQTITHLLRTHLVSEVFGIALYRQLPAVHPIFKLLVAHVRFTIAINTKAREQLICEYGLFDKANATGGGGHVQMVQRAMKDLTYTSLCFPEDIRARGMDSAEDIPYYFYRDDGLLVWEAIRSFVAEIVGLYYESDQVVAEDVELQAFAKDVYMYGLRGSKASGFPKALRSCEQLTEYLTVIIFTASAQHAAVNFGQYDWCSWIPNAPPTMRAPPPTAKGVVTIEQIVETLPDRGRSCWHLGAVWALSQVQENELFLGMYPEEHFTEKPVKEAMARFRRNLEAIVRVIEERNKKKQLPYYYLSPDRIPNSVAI
Measured remaining activity at 10 µg/mL accompanies every entry in the list below.
Reply with a number, then the unit it belongs to.

1. O=C1C(N2CCN(c3cccc(C(F)(F)F)c3)CC2)=CC(=O)c2ncccc21
5.7%
2. O=C1C=C(N2CCN(Cc3ccccc3)CC2)C(=O)c2nccnc21
8%
3. O=C1C=C(N2CCN(c3cccc(C(F)(F)F)c3)CC2)C(=O)c2nccnc21
0%
4. O=C1C(N2CCN(c3nc4ccccc4o3)CC2)=CC(=O)c2ncccc21
8%
5. O=C1C=C(N2CCN(c3nc4ccccc4s3)CC2)C(=O)c2nccnc21
8%

Pending compound:
Short answer for O=C1C=C(N2CCN(c3nc4ccccc4o3)CC2)C(=O)c2ncccc21 : remaining activity at 10 µg/mL was 35.8%

Taken from patent US4742059A.
